Target: kinase protein levels in MCF-7 cells (Homo sapiens)
Construct: endogenous in cells; host or cells: MCF-7
Sequence (A0A0B4J2F0 1-54): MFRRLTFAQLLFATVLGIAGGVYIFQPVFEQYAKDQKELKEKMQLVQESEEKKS
Assay: TMT-labeled quantitative proteomics
Assay type: cell-based
Details: protein PIGBOS1; MCF7; 1 µM; set1.1
endpoint: P.Value (compound/DMSO)
Respond with the number and no other words.

structure_string	endpoint	value_reported
Cc1ncsc1-c1ccc(CNC(=O)[C@@H]2C[C@@H](O)CN2C(=O)[C@@H](NC(=O)CCOCCOCCOCCOCCN2CCN(c3ccc(Nc4ncc(Cl)c(Nc5ccccc5C(N)=O)n4)cc3)CC2)C(C)(C)C)cc1	P.Value (compound/DMSO)	0.6062
Cc1ncsc1-c1ccc(CNC(=O)[C@@H]2C[C@@H](O)CN2C(=O)[C@@H](NCCOCCOCCOCCOCCC(=O)N2CCN(c3ccc(Nc4ncc(Cl)c(Nc5ccccc5C(N)=O)n4)cc3)CC2)C(C)(C)C)cc1	P.Value (compound/DMSO)	0.867
Cc1ncsc1-c1ccc(CNC(=O)[C@@H]2C[C@@H](O)CN2C(=O)[C@@H](NC(=O)CCOCCOCCNC(=O)c2cc(Nc3cc(C4CC4)[nH]n3)nc(Nc3ccc(CC#N)cc3)n2)C(C)(C)C)cc1	P.Value (compound/DMSO)	0.533

Could you please provide reported P.Value (compound/DMSO) for `Cc1ncsc1-c1ccc(CNC(=O)[C@@H]2C[C@@H](O)CN2C(=O)[C@@H](NC(=O)CCOCCOCCOCCN2CCN(c3cc(Nc4cc(C5CC5)[nH]n4)nc(Nc4ccc(CC#N)cc4)n3)CC2)C(C)(C)C)cc1` ? Thanks!
0.3761
